For each record, write down the corresponding Kd.
# targetSystem: EGFR extracellular domain, Fc fusion (EGFR-Fc) (UniProt P00533 25-644)
# procedureSummary: ELISA-type plate assay; EGFR-Fc on protein A 96-well plates, biotinylated aptamer, streptavidin-AP chemiluminescence, n = 3; buffer, salt, pH and temperature not in the material
# experimentalContext: protein: recombinant; tags: Fc; chain copies: 2; label: 5'-biotin; single strand
Entry rule: numbers only, all in nM.

For record GGACGGAUUUAAUCGCCGUAGAAAAGCAUGUCAAAGCCGGAACCGUCC (structured_RNA, 2'-F on all C and U; 5-phenyl on all 8 U (8,9,10,13,19,29,31,46)) [MinE07-U-Ph-Biotin] the listed Kd is 3.59

For record CGGAUUUAAUCGCCGUAGAAAAGCAUGUCAAAGCCGGAACCGUCC (structured_RNA, 2'-F on all C and U; 5-phenyl-U at 6,7,43 (U2,U3,U8); 5-iodo-U at 16 (U5); lacks 5' GGA) [MinE07UA-Biotin] the listed Kd is 1.53

For record GGACGGAUUUAAUCGCCGUAGAAAAGCAUGUCAAAGCCGGAACCGUCC (structured_RNA, 2'-F on all C and U; 5-vinyl-U at 8,31 (U1,U7); 5-phenyl-U at 29 (U6)) [MinE07UC'-Biotin] the listed Kd is 1.11
